Test: qHTS assay for identifying genotoxic compounds that show differential cytotoxicity against isogenic chicken DT40 cell lines with known DNA damage response pathways - wild type cell line (AID 743012); also: nearly all actives have a fitted effect of over 60% in size
Conditions: DT40 wild type chicken cells viability, CellTiter-Glo, 40 h; series mostly up to 68.4 µM
Results filed as inconclusive are left out. Calls of active or inactive are those of the source. Calls follow the shape of the dose curve; as a rule, active = well fitted cell-killing curve with a large enough effect in the repeat runs; inconclusive = weak or mixed curves, or effect the other way; inactive = no such curve, though single readings can be large or run the other way.
Respond only with the outcome that fits, drawn from yes (active), no (inactive)

Examples with answers:
{"columns": ["COMPOUND", "DISCRETE_LABEL"],
 "data": [
  ["CNC(=O)O/N=C/C(C)(C)S(C)=O (stereo not given)", "no"],
  ["CC[N+](=O)[O-]", "no"],
  ["COP(=S)(OC)SCN1C(=O)c2ccccc2C1=O", "yes"],
  ["CSc1nnc(C(C)(C)C)c(=O)n1N", "no"]
]}

Inquiry: GET /call?item= Cc1cccc(C)c1NC(=O)CN1CCCC1=O returns the recorded outcome of this test.
Reply text: no

Inquiry: Next: CCCOC(=O)c1ccccc1C(=O)OCCC
Reply text: no

Inquiry: Next: CC(C)CCCCCCOC(=O)c1ccccc1C(=O)OCCCCCCC(C)C
Reply text: no

Inquiry: Next: Cc1cccc(C)c1N
Reply text: no

Inquiry: Next: Nc1cc(Cl)cc(Cl)c1
Reply text: no

Inquiry: Next: CC12CC1(C)C(=O)N(c1cc(Cl)cc(Cl)c1)C2=O (stereo not given)
Reply text: no

Inquiry: Next: C/C=C/c1ccc2c(c1)OCO2
Reply text: no

Origin of measurements: PubChem BioAssay (Tox21)
